Origin of values: the supplement of paper PMC4022240

Collected peptide microarray binding signal values appear next to each entry.
Target: T1, HaloTag-ATRX ADD domain (163-292)
T1 chain: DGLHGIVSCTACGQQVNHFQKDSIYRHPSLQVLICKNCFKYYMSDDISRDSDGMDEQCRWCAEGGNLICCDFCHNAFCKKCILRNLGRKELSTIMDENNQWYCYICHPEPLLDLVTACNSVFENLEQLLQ
Test: peptide microarray binding signal (635 nm), min-max normalized on array (fraction of array maximum); higher = stronger binding
Settings: peptide region: Unmod H1 variant; binder concentration: 50 nM
Enter the number alone.

Some solved entries appear below for comparison.
AGKKAKKPAKAAA [Unmod H1 variant A G K K A K K P A K A A A]    0.0147
KAASGEAKPKAKK [Unmod H1 variant K A A S G E A K P K A K K]    0.0252
ASAAPEKPLAGKK [Unmod H1 variant A S A A P E K P L A G K K]    0.0171

We next turn to a different binder, shown below.
Prompt: Requested field: peptide microarray binding signal. Item: GTGASGSFKLNKK [Unmod H1 variant G T G A S G S F K L N K K]
Completion: 0.0163
